The measured values listed here are drawn from patent US20260317314A1.

Measured Human plasma protein binding rate (%), listed per entry.
# System: plasma protein
# Measurement description: Plasma protein binding rate test, human (equilibrium dialysis)
# Type: in vitro ADME
# Test settings: 37° C., 4 hours
Readout: Human plasma protein binding rate (%)

                                   compound                                readout  result
0  CCC(=O)NC1CCCc2c(-c3cc4ccc(=O)n(C)c4cc3F)cncc21 (single isomer, unassigned)  Human plasma protein binding rate (%)   76.2%
1  CCC(=O)N[C@H]1CCOc2c(-c3ccc4c(ccc(=O)n4C)c3)cncc21 (single isomer, unassigned)  Human plasma protein binding rate (%)   70.5%
2  CCC(=O)NC1CCCc2c(-c3cc4ccc(=O)n(C)c4s3)cncc21 (single isomer, unassigned)  Human plasma protein binding rate (%)   69.6%

====

# Measurement description: In vivo pharmacokinetics study in rats
# Design: species or system SD rat
# Test settings: rat, plasma; male SD rats, oral 2 mg/kg
Readout: half-life (h)

>>> df
                                   molecule    readout  numeric_value
0  CCC(=O)N[C@H]1CCOc2c(-c3ccc4c(c3)CCC(=O)N4C)cncc21 (single isomer, unassigned)  half-life           2.36
1  CCC(=O)N[C@@H]1CCCc2c(-c3ccc4c(ccc(=O)n4C)c3)cncc21 (single isomer, unassigned)  half-life           4.61
2  CCC(=NOC)NC1CCCc2c(-c3ccc4c(c3)CCC(=O)N4C)cncc21 (single isomer, unassigned)  half-life           2.77
3  CCC(=O)NC1CCOc2c(-c3cc4c(s3)N(C)C(=O)CC4)cncc21 (single isomer, unassigned)  half-life           3.23

====

# Measurement description: In vivo pharmacokinetic study in cynomolgus monkeys
# Set-up: species or system cynomolgus monkey
# Test settings: male cynomolgus monkeys, oral 1 mg/kg, plasma
Readout: Cmax

In [3]: df
Out[3]:
                                   molecule   result
0  CCC(=O)NC1CCCc2c(-c3cc4ccc(=O)n(C)c4s3)cncc21 (single isomer, unassigned)  1320 nM

====

# Subject of test: UniProt:P10635
# Sequence (P10635 whole entry): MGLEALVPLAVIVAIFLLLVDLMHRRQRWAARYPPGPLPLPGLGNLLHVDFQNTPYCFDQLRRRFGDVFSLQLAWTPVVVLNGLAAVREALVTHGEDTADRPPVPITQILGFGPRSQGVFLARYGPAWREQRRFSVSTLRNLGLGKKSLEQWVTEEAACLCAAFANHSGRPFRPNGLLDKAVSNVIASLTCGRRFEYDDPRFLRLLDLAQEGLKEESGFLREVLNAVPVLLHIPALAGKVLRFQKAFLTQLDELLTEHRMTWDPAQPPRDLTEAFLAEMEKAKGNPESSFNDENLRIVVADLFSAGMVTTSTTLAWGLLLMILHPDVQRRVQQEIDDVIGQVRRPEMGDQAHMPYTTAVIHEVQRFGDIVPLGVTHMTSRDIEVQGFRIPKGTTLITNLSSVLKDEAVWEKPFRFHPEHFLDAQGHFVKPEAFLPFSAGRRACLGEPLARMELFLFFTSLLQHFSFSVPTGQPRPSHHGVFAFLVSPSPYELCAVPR
Readout: IC50

>>> df
                                   compound   result
0  CCC(=O)NC1CCOc2c(-c3cc4c(s3)N(C)C(=O)CC4)cncc21 (single isomer, unassigned)  > 50 µM
1  CCC(=O)NC1CCCc2c(-c3ccc4c(c3)OCC(=O)N4C)cncc21 (single isomer, unassigned)  > 50 µM

====

# Subject of test: UniProtKB P05177
# Sequence (P05177 whole entry): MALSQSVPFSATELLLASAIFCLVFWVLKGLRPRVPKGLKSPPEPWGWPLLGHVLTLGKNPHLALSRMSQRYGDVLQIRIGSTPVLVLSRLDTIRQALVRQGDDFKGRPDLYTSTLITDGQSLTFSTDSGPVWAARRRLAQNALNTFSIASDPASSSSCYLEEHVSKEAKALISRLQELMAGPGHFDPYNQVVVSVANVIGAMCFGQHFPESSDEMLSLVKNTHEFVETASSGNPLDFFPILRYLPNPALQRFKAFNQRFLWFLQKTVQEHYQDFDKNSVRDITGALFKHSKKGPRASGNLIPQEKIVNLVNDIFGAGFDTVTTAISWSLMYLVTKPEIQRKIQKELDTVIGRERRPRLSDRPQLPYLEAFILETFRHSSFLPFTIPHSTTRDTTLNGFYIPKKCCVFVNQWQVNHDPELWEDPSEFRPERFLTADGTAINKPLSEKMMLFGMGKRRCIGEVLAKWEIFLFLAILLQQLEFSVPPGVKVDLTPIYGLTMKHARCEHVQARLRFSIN
pIC50: −log10 of the molar value.
Measured pIC50, listed per entry.
Readout: pIC50

In [3]: df
Out[3]:
                                   molecule  result
0  CCC(=O)N[C@H]1CCOc2c(-c3ccc4c(c3)CCC(=O)N4C)cncc21 (single isomer, unassigned)  < 4.30
1  CCC(=O)NC1CCCc2c(-c3ccc4c(c3)OCC(=O)N4C)cncc21 (single isomer, unassigned)  < 4.30

====

# Subject of test: human CYP11B2 (Homo sapiens, UniProt P19099)
# Sequence (P19099 25-503): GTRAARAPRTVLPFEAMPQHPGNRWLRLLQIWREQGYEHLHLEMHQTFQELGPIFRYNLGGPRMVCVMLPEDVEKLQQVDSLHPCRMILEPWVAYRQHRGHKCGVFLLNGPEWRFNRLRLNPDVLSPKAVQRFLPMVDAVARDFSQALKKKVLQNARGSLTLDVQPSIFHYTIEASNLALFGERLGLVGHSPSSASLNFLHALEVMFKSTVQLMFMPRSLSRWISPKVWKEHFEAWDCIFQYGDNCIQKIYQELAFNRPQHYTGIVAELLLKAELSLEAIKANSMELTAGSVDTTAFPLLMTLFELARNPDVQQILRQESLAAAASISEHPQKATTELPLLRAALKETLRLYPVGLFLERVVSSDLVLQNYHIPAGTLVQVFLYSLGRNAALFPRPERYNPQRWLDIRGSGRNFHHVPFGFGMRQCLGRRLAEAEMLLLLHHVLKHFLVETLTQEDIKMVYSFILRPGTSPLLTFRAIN
# Measurement description: In vitro activity assay of monoclonal cells overexpressing human CYP11B2
# Test settings: G402 cells overexpressing human CYP11B2; substrate 11-deoxycorticosterone; 16 hours; aldosterone by LCMS/MS
pIC50: −log10 of the molar value.
Measured pIC50, listed per entry.
Readout: pIC50

>>> df
                                   molecule  numeric_value
0  CCC(=O)N[C@@H]1CCCc2c(-c3ccc4c(c3)c(C)cc(=O)n4C)cncc21 (single isomer, unassigned) [Compound 027]           7.20
1  CCC(=O)N[C@@H]1CCCc2c(-c3cnc4c(ccc(=O)n4C)c3)cncc21 (single isomer, unassigned) [Compound 022]           7.31
2  CCC(=O)N[C@H]1CCOc2c(-c3ccc4c(c3)CCC(=O)N4C)cncc21 (single isomer, unassigned) [Compound 037]           7.85

====

# Measurement description: In vivo pharmacokinetics study in rats
# Design: species or system SD rat
# Test settings: rat; male SD rats, oral 2 mg/kg, plasma
Measured Cmax, listed per entry.
Readout: Cmax

                                   compound   result
0  CCC(=O)N[C@@H]1CCCc2c(-c3ccc4c(ccc(=O)n4C)c3)cncc21 (single isomer, unassigned)  7.63 µM
1  CCC(=NOC)NC1CCCc2c(-c3ccc4c(c3)CCC(=O)N4C)cncc21 (single isomer, unassigned)  1.31 µM
2  CCC(=O)NC1CCOc2c(-c3cc4c(s3)N(C)C(=O)CC4)cncc21 (single isomer, unassigned)  7.86 µM
3  CCC(=O)N[C@H]1CCOc2c(-c3ccc4c(c3)CCC(=O)N4C)cncc21 (single isomer, unassigned)  8.29 µM

====

# Subject of test: CYP2C9 (Homo sapiens, UniProt P11712)
# Sequence (P11712 whole entry): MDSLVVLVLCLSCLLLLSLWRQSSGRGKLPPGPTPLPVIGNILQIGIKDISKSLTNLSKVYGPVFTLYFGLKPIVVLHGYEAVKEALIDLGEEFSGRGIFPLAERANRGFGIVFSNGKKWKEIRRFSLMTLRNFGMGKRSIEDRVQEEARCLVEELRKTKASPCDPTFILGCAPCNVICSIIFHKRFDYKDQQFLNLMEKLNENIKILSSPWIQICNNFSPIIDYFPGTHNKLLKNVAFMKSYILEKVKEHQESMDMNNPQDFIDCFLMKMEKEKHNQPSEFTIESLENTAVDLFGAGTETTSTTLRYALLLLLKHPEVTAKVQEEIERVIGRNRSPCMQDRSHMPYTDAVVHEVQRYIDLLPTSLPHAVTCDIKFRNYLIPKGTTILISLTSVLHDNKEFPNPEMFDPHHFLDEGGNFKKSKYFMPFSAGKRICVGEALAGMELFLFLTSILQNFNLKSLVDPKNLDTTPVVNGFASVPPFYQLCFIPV
pIC50: −log10 of the molar value.
Measured pIC50, listed per entry.
Readout: pIC50

>>> df
                                   compound  readout  result
0  CCC(=O)NC1CCOc2c(-c3cc4c(s3)N(C)C(=O)CC4)cncc21 (single isomer, unassigned) [Compound 046]    pIC50  < 4.30
1  CCC(=O)NC1CCCc2c(-c3ccc4c(c3)OCC(=O)N4C)cncc21 (single isomer, unassigned) [Compound 011]    pIC50  < 4.30

====

# Measurement description: In vivo pharmacokinetic study in cynomolgus monkeys
# Design: species or system cynomolgus monkey
# Test settings: cynomolgus monkey, plasma; male cynomolgus monkeys, oral 3 mg/kg
Readout: half-life (h)

In [3]: df
Out[3]:
                                   molecule  endpoint_unit  numeric_value
0  CCC(=O)N[C@@H]1CCCc2c(-c3ccc4c(ccc(=O)n4C)c3)cncc21 (single isomer, unassigned)              h           4.99

====

# Test system: plasma protein
# Measurement description: Plasma protein binding rate test, cynomolgus monkey (equilibrium dialysis)
# Type: in vitro ADME
# Test settings: 37° C., 4 hours
Readout: Plasma protein binding rate (%) in cynomolgus monkeys

>>> df
                                   compound  result
0  Cc1noc(C)c1C(=O)N[C@@H]1CCCc2c(-c3cc4ccc(=O)n(C)c4cc3F)cncc21 (single isomer, unassigned) [Compound 020]   90.3%
1  CCC(=O)N[C@@H]1CCCc2c(-c3cc4c(s3)N(C)C(=O)CC4)cncc21 (single isomer, unassigned) [Compound 017]   78.1%
2  CCC(=O)NC1CCCc2c(-c3cc4ccc(=O)n(C)c4s3)cncc21 (single isomer, unassigned) [Compound 023]   69.0%
3  CCC(=O)N[C@H]1CCOc2c(-c3ccc4c(ccc(=O)n4C)c3)cncc21 (single isomer, unassigned) [Compound 044]   66.4%
4  CCC(=O)N[C@@H]1CCCc2c(-c3cc(F)c4c(ccc(=O)n4C)c3)cncc21 (single isomer, unassigned) [Compound 018]   79.5%
5  CCC(=O)NC1CCCc2c(-c3cc4ccc(=O)n(C)c4cc3F)cncc21 (single isomer, unassigned) [Compound 019]   75.2%

====

# Measurement description: In vivo pharmacokinetic study in cynomolgus monkeys
# Parameters: species or system cynomolgus monkey
# Test settings: cynomolgus monkey, plasma; male cynomolgus monkeys, oral 3 mg/kg
Readout: bioavailability (%)

In [3]: df
Out[3]:
                                   compound  numeric_value
0  CCC(=O)N[C@@H]1CCCc2c(-c3ccc4c(ccc(=O)n4C)c3)cncc21 (single isomer, unassigned)            120

====

# Measurement description: In vivo pharmacokinetics study in rats
# Parameters: species or system SD rat
# Test settings: male SD rats, oral 2 mg/kg, plasma
Readout: Cmax (µM)

In [3]: df
Out[3]:
                                   compound  endpoint_unit  numeric_value
0  CCC(=O)NC1CCCc2c(-c3cc4ccc(=O)n(C)c4s3)cncc21 (single isomer, unassigned)             µM           6.92

====

# Measurement description: In vivo pharmacokinetic study in cynomolgus monkeys
# Set-up: species or system cynomolgus monkey
# Test settings: cynomolgus monkey; male cynomolgus monkeys, oral 3 mg/kg, plasma; read-out: AUC0-24 h
Readout: AUC(0-t) at 24 h (µM·h)

In [3]: df
Out[3]:
                                   compound  numeric_value
0  CCC(=O)N[C@@H]1CCCc2c(-c3ccc4c(ccc(=O)n4C)c3)cncc21 (single isomer, unassigned)           23.2
